# merged literature set: Ki with Adenosine receptor A2a (Homo sapiens, UniProt P29274)
# Sequence (P29274 whole entry): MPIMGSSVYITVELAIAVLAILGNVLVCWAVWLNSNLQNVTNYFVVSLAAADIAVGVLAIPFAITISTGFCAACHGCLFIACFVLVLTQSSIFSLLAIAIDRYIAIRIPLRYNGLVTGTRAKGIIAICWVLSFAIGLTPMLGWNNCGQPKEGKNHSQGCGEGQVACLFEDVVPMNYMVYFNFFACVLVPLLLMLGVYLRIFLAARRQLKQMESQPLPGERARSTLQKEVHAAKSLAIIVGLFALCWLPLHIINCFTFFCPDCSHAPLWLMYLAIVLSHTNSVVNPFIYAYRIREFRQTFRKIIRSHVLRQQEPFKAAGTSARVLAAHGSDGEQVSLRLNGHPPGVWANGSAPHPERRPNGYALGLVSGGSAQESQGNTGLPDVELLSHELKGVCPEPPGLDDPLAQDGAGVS
observed-property: Ki (µM)

Previously resolved entries follow.
GET /value?item= CCCn1c(=O)n(C)c(=O)c2[nH]c(-c3ccc(OCC(=O)N4CCN(c5c(Cl)cncc5Cl)CC4)cc3)cc21 &field=Ki returns 0.646

GET /value?item= CCn1c(=O)c2[nH]c(-c3ccc(OCC(=O)Nc4ccon4)cc3)nc2n(CCCOC)c1=O &field=Ki returns 0.214

GET /value?item= Cc1cc(C)n(-c2nc(NC(=O)CN3CCN(C)CC3)cc(-c3ocnc3C)n2)n1 &field=Ki returns 0.19

GET /value?item= CNC(=O)CN(C(C)=O)c1ccc(OC)c2nc(NC(=O)c3ccc(F)cc3)sc12 &field=Ki returns 0.33

GET /value?item= CCCn1c(=O)c2[nH]c(-c3ccc(OC(C)C(=O)N4CCN(c5ccccc5)CC4)cc3)cc2n(CCC)c1=O (stereo not drawn) &field=Ki returns 0.24

GET /value?item= O=C(CCc1ccccc1)Nc1nc2ccccc2n2nc(-c3ccco3)nc12 &field=Ki returns 0.0631

GET /value?item= Cc1csc(-c2coc3cc(OCC(=O)O)cc(C)c3c2=O)n1 &field=Ki returns 2.24

GET /value?item= CCN(C(C)=O)c1ccc(OC)c2nc(NC(=O)[C@@H]3CC[C@@H](NC(=O)c4cccc(C(F)(F)F)c4)C3)sc12 &field=Ki returns 0.031

I: CCn1c(=O)c2[nH]c(-c3ccc(OCC(=O)Nc4ccc(Br)cc4)cc3)nc2n(CCCOC)c1=O
II: CC(C)(C)CC(=O)Nc1c(F)cc(C(=O)Nc2nccs2)cc1F
III: CNC(=O)[C@@]12C[C@@H]1[C@@H](n1cnc3c(NCCc4ccc(OC)c(O)c4)nc(OCC(C)C)nc31)[C@H](O)[C@@H]2O
IV: Cc1cc(O)c(C(C)C)cc1N=C1CSC(=O)N1
V: Cc1ccc(C(=O)Nc2nc(Cl)c3cn(CCc4ccccc4)nc3n2)cc1
Put the entries in order of Ki, starting with the largest number. I would appreciate it if you listed the labels in the requested order. V, IV, III, I, II
(V: 9.9 µM, IV: 1.78 µM, III: 0.588 µM, I: 0.0977 µM, II: 0.0059 µM)

a: CCCn1c(=O)c2[nH]c(-c3ccc(OCC(=O)O)cc3)c(Br)c2n(CCC)c1=O
b: Cc1ccc2c(O)c(CC(=O)NCc3ccccc3)cnc2n1
Which value of Ki is smaller, the one for a or the one for b ? Indicate which entry you chose by stating its label. a

P: Nc1nc(NCCCc2ccccc2)nc2sc(-c3ccco3)nc12
Q: Nc1nc(-c2ccco2)c2cnn(CCCOc3ccc(C(=O)Nc4ccccc4N)cc3)c2n1
R: CCCN1C(=O)N2C[C@@H](C(C)C)N=C2c2[nH]c(C34CCC(O)(CC3)CC4)nc21
S: Nc1nc(OCCc2c[nH]c3ccc(Cl)cc23)nc2c1ncn2[C@@H]1O[C@H](CO)[C@@H](O)[C@H]1O
T: Nc1nc(OCCc2c[nH]c3c(Br)cccc23)nc2c1ncn2[C@@H]1O[C@H](CO)[C@@H](O)[C@H]1O
Please put the entries in order of rising Ki. I would appreciate it if you listed the labels in the requested order. P, Q, T, S, R
(P: 0.058 µM, Q: 0.147 µM, T: 0.252 µM, S: 0.39 µM, R: 1.6 µM)

P: CCOc1ccnc2c(CNC(=O)c3nc(N)nc4c(F)cccc34)cccc12
Q: Cc1ccc(CNc2nc3nn(C)cc3c3nc(-c4ccco4)nn23)cc1
Just curious, which one has the larger Ki reading, P or Q ? Indicate which entry you chose by stating its label. Q
(Q: 0.117 µM, P: 0.0732 µM)

A: CC(=O)Nc1cc(-c2cccc(CO[C@H]3CCN(C)C3)c2)nc(-n2nc(C)cc2C)n1
B: CCc1cnn([C@H]2C[C@@H](n3cnc4c(NCC(c5ccccc5)c5ccccc5)nc(NCCc5cn(CC)cn5)nc43)[C@H](O)[C@@H]2O)c1
C: CC(=O)Nc1ccc(-c2ccncc2)c(-c2ccco2)n1
D: COCCOc1ccc(N2CCN(CCNc3cc4nc(-c5ccco5)nn4c(N)n3)CC2)cc1
Put the entries in order of Ki, starting with the largest number. I would appreciate it if you listed the labels in the requested order. C, B, A, D

A: Nc1nc2c(cnn2CCCc2ccc(OCCc3ccccc3)cc2)c2nc(-c3ccco3)nn12
B: CC(=O)Nc1cc(N2CCOCC2)nc(-n2nc(C)cc2C)n1
C: CCNC(=O)[C@H]1O[C@@H](n2cnc3c(NNC(=O)c4ccc(C)s4)nc(Cl)nc32)[C@H](O)[C@@H]1O
Please put the entries in order of rising Ki. I would appreciate it if you listed the labels in the requested order. A, B, C
